Target entity: FLT3 (R834Q) (Homo sapiens (Human), UniProt P36888, R834Q)
Procedure details: KINOMEscan binding assay (Eurofins DiscoveRx)
Observable: Kd (nM)

{"columns": ["Molecule", "Recorded value"],
 "data": [
  ["CCc1nn(C)c2c1/C=C/c1n[nH]c3ccc(cc13)-c1cnn(C)c1OCCN(C)C2=O [Ex. 6]", 0.89]
]}

----------
Tested on: Phospho-p44/42 MAPK (Erk1/2) (T202/Y204)
Procedure details: Inhibition of kinase phosphorylation by Western Blot in MV-4-11
Assay type: cell-based
Conditions: MV-4-11 cells, 4 hour-incubation; read-out: pERK MV-4-11 IC50
pIC50: −log10 of the molar value.
Observable: pIC50

{"columns": ["Compound", "Target entity", "Recorded value"],
 "data": [
  ["CCc1nn(C)c2c1/C=C/c1n[nH]c3ccc(cc13)-c1cnn(C)c1OCCN(C)C2=O [Ex. 6]", "Phospho-p44/42 MAPK (Erk1/2) (T202/Y204)", 8.55]
]}

----------
System: NB-1
Procedure details: Cell proliferation panel (CellTiter-Glo 2.0, 5 days)
Assay type: cell-based
Conditions: Neuroblastoma
pIC50: −log10 of the molar value.

{"columns": ["Compound", "pIC50"],
 "data": [
  ["CCc1nn(C)c2c1/C=C/c1n[nH]c3ccc(cc13)-c1cnn(C)c1OCCN(C)C2=O [Ex. 6]", 7.35]
]}

----------
System: H526
Procedure details: Cell proliferation panel (CellTiter-Glo 2.0, 5 days)
Assay type: cell-based
Conditions: Small cell lung cancer
Observable: IC50

{"columns": ["Compound", "Recorded value"],
 "data": [
  ["CCc1nn(C)c2c1/C=C/c1n[nH]c3ccc(cc13)-c1cnn(C)c1OCCN(C)C2=O [Ex. 6]", "75.5 nM"]
]}

----------
Test system: 786-O
Procedure details: Cell proliferation panel (CellTiter-Glo 2.0, 5 days)
Assay type: cell-based
Conditions: Renal cell adenocarcinoma
Method: Cell proliferation assay was carried out in a panel of 108 cell lines. 1000 (attached cells) or 3000 (suspension cells) cells/100 μl per well were seeded in 96 well black plate with a clear bottom (Corning #3904). […] Cell proliferation was measured using CellTiter-Glo 2.0 luciferase-based ATP detection assay (Promega, Madison, WI) at 50 μl per well following the manufacturer's protocol. Plates were then read on a TECAN Sparks multimode microplate reader. […]

{"columns": ["Compound", "IC50 (nM)"],
 "data": [
  ["CCc1nn(C)c2c1/C=C/c1n[nH]c3ccc(cc13)-c1cnn(C)c1OCCN(C)C2=O [Ex. 6]", 138]
]}

----------
Test system: MV-4-11 cells
Procedure details: MV-4-11 cell proliferation assay (CellTiter-Glo 2.0)
Assay type: cell-based
Conditions: Homo sapiens, MV4-11; MV-4-11, 384-well, 11-dose dilution series; read-out: IC50, inhibition of MV-4-11 cell proliferation
Observable: IC50

{"columns": ["Compound", "Recorded value"],
 "data": [
  ["CCn1nc(C)c2c1C(=O)N(C)CCOc1c(cnn1C)-c1ccc3[nH]nc(c3c1)/C=C/2 [compound 11]", "< 0.2 nM"],
  ["[2H]C([2H])([2H])N1CCOc2c(cnn2C)-c2ccc3[nH]nc(c3c2)/C=C/c2c(CC)nn(C([2H])([2H])[2H])c2C1=O [compound 21]", "< 0.2 nM"],
  ["Cc1c2c(nn1C)C(=O)N(C)CCOc1c(cnn1C)-c1ccc3[nH]nc(c3c1)/C=C/2 [compound 9]", "~1 nM"],
  ["CCOc1nn(C)c2c1/C=C/c1n[nH]c3ccc(cc13)-c1cnn(C)c1OCCN(C)C2=O [Ex. 22]", "< 0.2 nM"],
  ["Cc1nn(CCO)c2c1/C=C/c1n[nH]c3ccc(cc13)-c1cnn(C)c1OCCN(C)C2=O [Ex. 16]", "< 1 nM"]
]}
